SYSTEM_TESTED: T1, APC3323-AA
T1 chain: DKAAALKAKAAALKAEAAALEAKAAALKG
ASSAY_DETAILS: two-hybrid library CCmax;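 also: natural log of median RNA to DNA barcode read ratio; higher means stronger binding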
PROTOCOL_CONDITIONS: mean of both orientations
MEASURED_QUANTITY: interaction score

Field: example entries. Status: answers known.
>  <BINDER>
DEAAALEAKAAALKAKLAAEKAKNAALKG [APC2375-AA]

>  <interaction score>
-1.82

$$$$
>  <BINDER>
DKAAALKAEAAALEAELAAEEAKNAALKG [APC3265-AA]

>  <interaction score>
-1.79

$$$$
>  <BINDER>
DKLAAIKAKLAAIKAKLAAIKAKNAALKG [APC1115-AA]

>  <interaction score>
-1.52

$$$$
>  <BINDER>
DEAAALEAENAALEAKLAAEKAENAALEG [APC2474-AA]

>  <interaction score>
-1.45

$$$$
>  <BINDER>
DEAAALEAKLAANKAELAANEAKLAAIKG [APC2981-AA]

>  <interaction score>
-1.68

$$$$
>  <BINDER>
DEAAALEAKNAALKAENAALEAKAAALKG [APC2543-AA]

>  <interaction score>
-1.36

$$$$

A: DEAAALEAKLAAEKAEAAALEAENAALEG [APC2724-AA]
B: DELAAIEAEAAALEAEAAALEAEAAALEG [APC222-AA]
Of A and B , whose reported interaction score is the larger number? Identify your selection by its label.
B
(B: -0.292, A: -1.8)
